Where do these numbers come from? They come from PubChem BioAssay (NCI).

system: U251 CNS; assay: NCI-60 one-dose screen, 48 h (100 = growth as untreated, 0 = no growth, -100 = all killed); details: 10 µM unless noted
This is part of a sample that, as a whole, favours compounds with a hit. Of some 83,000 tested, about 20% had one in any assay.
Would you please tag the item 1 when its growth is 50% or above, and -1 when it is below?

CCOC(=O)C1=NN(c2ccc(Cl)cc2)C2C3N(c4ccc(Cl)cc4)N=C(C(=O)OCC)N3c3ccccc3N12 (stereo unspecified) | 1

Request: Kindly determine if growth recorded for NNC(=O)C1CC2c3ccccc3C1c1ccccc12 (stereo unspecified) is above or exactly 50%.
Result: 1

Request: Item C=C(C[C@](O)(C(=O)/C=C/c1ccc(Cl)cc1)C(=O)OC)c1ccccc1 with growth of 50% or above?
Result: -1
